Target: MERTK (UniProt Q12866)
Sequence (Q12866 whole entry, looked up): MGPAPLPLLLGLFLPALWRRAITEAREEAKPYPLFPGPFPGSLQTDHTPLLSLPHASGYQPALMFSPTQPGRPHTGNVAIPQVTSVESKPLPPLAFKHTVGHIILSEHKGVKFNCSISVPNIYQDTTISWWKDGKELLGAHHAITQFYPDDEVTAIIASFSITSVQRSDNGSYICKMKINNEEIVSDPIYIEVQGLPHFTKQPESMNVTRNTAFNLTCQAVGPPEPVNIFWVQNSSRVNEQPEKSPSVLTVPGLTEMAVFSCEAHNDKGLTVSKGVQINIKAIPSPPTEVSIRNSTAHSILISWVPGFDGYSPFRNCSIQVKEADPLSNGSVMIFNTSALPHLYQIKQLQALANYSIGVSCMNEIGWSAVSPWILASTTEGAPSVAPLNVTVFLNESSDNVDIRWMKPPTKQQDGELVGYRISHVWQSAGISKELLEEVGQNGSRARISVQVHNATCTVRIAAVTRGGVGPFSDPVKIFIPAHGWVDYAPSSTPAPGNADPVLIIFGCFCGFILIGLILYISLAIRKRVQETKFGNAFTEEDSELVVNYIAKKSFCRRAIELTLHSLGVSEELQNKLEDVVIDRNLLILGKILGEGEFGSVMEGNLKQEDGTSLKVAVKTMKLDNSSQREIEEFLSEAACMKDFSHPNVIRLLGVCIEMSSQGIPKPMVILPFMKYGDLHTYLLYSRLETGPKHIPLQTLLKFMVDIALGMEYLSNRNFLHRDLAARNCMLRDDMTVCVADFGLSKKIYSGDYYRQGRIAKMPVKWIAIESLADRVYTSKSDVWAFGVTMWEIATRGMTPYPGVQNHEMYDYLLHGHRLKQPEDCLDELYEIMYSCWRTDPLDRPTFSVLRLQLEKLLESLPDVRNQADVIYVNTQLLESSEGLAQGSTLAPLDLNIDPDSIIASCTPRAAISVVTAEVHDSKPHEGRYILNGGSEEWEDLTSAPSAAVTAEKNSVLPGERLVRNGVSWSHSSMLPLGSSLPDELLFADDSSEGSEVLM
Test: phosphorylation enrichment, bacterial display (enrichment ratio); higher = better substrate or ligand; peptides without Tyr show the background;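 further: 11-residue human phosphosite peptides and single-mutation variants displayed on the E. coli surface, counted by deep sequencing, each peptide's frequency after selection divided by its frequency in the unselected input library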;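 further: frequency after pTyr selection over input frequency; kinase dosed for 20-30% of maximal phosphorylation in three min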
Label met for high-side phosphorylation enrichment (at or above 0.5) and not met for low-side phosphorylation enrichment (below it).

Q. Textbook exercise: given the entry FFVVEYRNQKP [MUC17_Y4332_D4334N_YF] , state whether its phosphorylation enrichment is greater than or equal to 0.5.
A. not met

Q. Next entry: PPPELYFVKVD [TERT_Y707]
A. met

Q. Next entry: ISSLDYISKSK [VAV3_Y294_T298S]
A. not met

Q. Next entry: LTERGYSFTTT [ACTB_Y198]
A. not met

Q. Next entry: PGIRMYQVQYN [LRFN1_Y454]
A. met

Q. Next entry: HEKKVYSFCGT [RPS6KA3_Y226_A225V]
A. met

Q. Next entry: RGEKQYLAAPL [ALOX12_Y295]
A. not met

Q. Next entry: FSKTQYNQVPS [CXADR_Y318_YF]
A. met

Q. Next entry: GIVEDYRPPFC [ACVRL1_Y421_Y426C]
A. not met

Q. Next entry: AFEQQYSPIPR [NOX1_Y373]
A. met

Q. Next entry: RQNNSYTCYTA [SLC20A2_Y386_R382Q]
A. not met

Q. Next entry: PYSSPYENSLI [EPOR_Y489_N487S]
A. met

Q. Next entry: CLRIDYERVSQ [DSP_Y1542_R1537C]
A. not met
